# ASSAY_PROTOCOL: compounds binding Alexa647 anti-His antibody – biochemical, small-molecule microarray, 635 nm fluorescence, artefact control for SMM control protein annotation, primary screen (AID 1128);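 also: score merges feature fluorescence with signal-to-noise for each printed compound spot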
# REPORTED_CONDITIONS: higher = more signal
ENDPOINT: composite z-score
One number for each entry.

# annotated cases, reported composite z-score shown
CS(=O)(=O)CCOC(=O)C1=CC(CCCO)=CC(c2ccc(CN3CCCC3)cc2)N(Cc2cccc(OC(F)(F)F)c2)C=C1C(=O)OCCS(C)(=O)=O (stereo not drawn) | 1.26
CCN(CC)c1ccc(N2CC=CC34O[C@@H]5C=CCOC(=O)[C@@H]5[C@H]3C(=O)N(CCCCCCO)[C@@H]4C2=O)cc1 (stereo partly drawn) | 0.449
COCCCNC(=O)[C@@H]1c2ccccc2C(=O)N(Cc2ccccc2)[C@H]1c1ccc(CO)cc1 | 1.67
COCCCNC(=O)[C@@H]1c2ccccc2C(=O)N(Cc2ccccc2OC)[C@H]1c1ccc(CO)cc1 | 2.1

Look at each molecule and report its composite z-score.
1. COC(=O)[C@]1(Cc2ccccc2)N=C(c2ccc(OCCCO)cc2)O[C@@H]1c1ccccc1N=[N+]=[N-]
2. CC(=O)Nc1cc(Br)ccc1C(=O)NCc1ccccc1
3. [N-]=[N+]=Nc1ccccc1C[C@@]1(C(=O)N2CCCCC2)N=C(c2ccc(OCCCO)cc2)O[C@@H]1c1ccccc1N=[N+]=[N-]
4. Cc1ccc(S[C@]2(C(=O)O)CC(=O)N(Cc3ccccc3C(F)(F)F)[C@@H]2c2ccc(CO)cc2I)cc1

Found:
[1.15, 0.69, 2.17, 0.275]

* * *

# TEST_TARGET: Fibroblast growth factor 10 (Homo sapiens) (UniProt O15520)
# Sequence (O15520 whole entry, looked up): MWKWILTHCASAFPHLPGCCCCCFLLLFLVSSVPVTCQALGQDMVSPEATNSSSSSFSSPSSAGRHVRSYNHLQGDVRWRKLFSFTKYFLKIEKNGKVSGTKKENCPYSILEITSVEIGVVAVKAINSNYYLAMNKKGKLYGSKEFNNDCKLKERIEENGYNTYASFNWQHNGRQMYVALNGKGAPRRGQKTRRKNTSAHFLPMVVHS
# ASSAY_PROTOCOL: compounds binding fibroblast growth factor 10 – biochemical, small-molecule microarray, 635 nm fluorescence, primary screen (AID 1102)
# REPORTED_CONDITIONS: FGF10 binding, fluorescence 635 nm, higher = more signal
Hi there, I'd appreciate the recorded composite z-score for every entry that follows.

# annotated cases, reported composite z-score shown
COCCOC(=O)N1C(=O)[C@@]2(c3cc(C#CCCO)ccc31)[C@H](c1ccc(O)cc1)N1[C@H](c3ccccc3)[C@H](c3ccccc3)OC(=O)[C@H]1[C@@H]2C(=O)N1CCN(c2ncccn2)CC1 | 1.11
COc1ccc(NN2C(C(O)c3ccc(N(C)C)cc3)C=CC3C(=O)N(C4CCCCC4)C(=O)C32)cc1 (configuration not stated) | 0.635
CCCCN1CC=CC23O[C@@H]4/C=C\CCCOC(=O)C4[C@H]2C(=O)N(CCCCCO)[C@@H]3C1=O (some centres not stated) | -0.552
COc1ccc(NC(=O)O[C@H]2[C@H](OC(=O)c3cc4ccccc4[nH]3)[C@@H](OC(=O)c3cc4ccccc4[nH]3)[C@@H](OC)O[C@@H]2CO)cc1 | 0.523
CCCC1(C(=O)OC)C=C2C(=C(c3ccccc3)C(=O)C2C)CN1 (configuration not stated) | -0.157
CC(C)[C@@H](C(=O)O)n1cc(C2(O)CCCCC2)nn1 | 0.928

Field: next compound
composite z-score reading for COc1ccc([Si](C)(C)[C@H]2[C@H](CCO)O[C@@]3(C(=O)N(Cc4ccccc4)c4ccc(N5CCCCC5=O)cc43)[C@@H]2C)cc1 : 0.884

This collection of values is drawn from PubChem BioAssay.
